Hey, just so you know, these numbers are from paper PMC10761933.

experiment: Oral vemurafenib plasma pharmacokinetics in tumor‐free WT and Abcb1a/b;Abcg2−/− FVB nude mice; type: in vivo; conditions: FVB nude, mouse, plasma, po, 25 mg/kg, Abcb1a/b;Abcg2−/− mice, 25 mg·kg^−1 p.o., mean ± SD
Property: Cmax (ng/mL)
Give bare numbers, in ng/mL.

Input: Sample CCCS(=O)(=O)Nc1ccc(F)c(C(=O)c2c[nH]c3ncc(-c4ccc(Cl)cc4)cc23)c1F — what was its Cmax?
Output: 41000

* * *

test: Oral vemurafenib plasma pharmacokinetics in tumor‐free WT and Abcb1a/b;Abcg2−/− FVB nude mice; type: in vivo; conditions: FVB nude, mouse, plasma, po, 25 mg/kg, Abcb1a/b;Abcg2−/− mice, 25 mg·kg^−1 p.o., mean ± SD; read-out: t 1/2 (elimination half‐life) (converted)
Property: half-life (h)
Answers are plain numbers, in h.

Input: # get_value(readout='half-life', item= CCCS(=O)(=O)Nc1ccc(F)c(C(=O)c2c[nH]c3ncc(-c4ccc(Cl)cc4)cc23)c1F )
Output: 8.5

* * *

assay: Oral vemurafenib plasma pharmacokinetics in tumor‐free WT and Abcb1a/b;Abcg2−/− FVB nude mice; assay type: in vivo; details: FVB nude, mouse, plasma, po, 25 mg/kg, WT mice, 25 mg·kg^−1 p.o., mean ± SD; read-out: t 1/2 (elimination half‐life) (converted)
Property: half-life (h)
Give bare numbers, in h.

Input: Fill in the blank: the reported half-life of CCCS(=O)(=O)Nc1ccc(F)c(C(=O)c2c[nH]c3ncc(-c4ccc(Cl)cc4)cc23)c1F is ____.
Output: 2.1

* * *

test: Oral vemurafenib plasma pharmacokinetics in tumor‐free WT and Abcb1a/b;Abcg2−/− FVB nude mice; assay type: in vivo; settings: FVB nude, mouse, plasma, po, 10 mg/kg, Abcb1a/b;Abcg2−/− mice, 10 mg·kg^−1 p.o., mean ± SD
Property: Tmax (h)
Give bare numbers, in h.

Input: Any idea what its Tmax is? The compound is CCCS(=O)(=O)Nc1ccc(F)c(C(=O)c2c[nH]c3ncc(-c4ccc(Cl)cc4)cc23)c1F [vemurafenib]
Output: 2.8

* * *

experiment: Oral vemurafenib plasma pharmacokinetics in tumor‐free WT and Abcb1a/b;Abcg2−/− FVB nude mice; type: in vivo; details: FVB nude, mouse, plasma, po, 25 mg/kg, WT mice, 25 mg·kg^−1 p.o., mean ± SD
Property: Tmax (h)
One number for each entry, in h.

Input: Field request: Tmax | item: CCCS(=O)(=O)Nc1ccc(F)c(C(=O)c2c[nH]c3ncc(-c4ccc(Cl)cc4)cc23)c1F
Output: 2.6

* * *

assay: Oral vemurafenib plasma pharmacokinetics in tumor‐free WT and Abcb1a/b;Abcg2−/− FVB nude mice; type: in vivo; settings: FVB nude, mouse, plasma, po, 10 mg/kg, Abcb1a/b;Abcg2−/− mice, 10 mg·kg^−1 p.o., mean ± SD
Property: Cmax

Input: Entry CCCS(=O)(=O)Nc1ccc(F)c(C(=O)c2c[nH]c3ncc(-c4ccc(Cl)cc4)cc23)c1F has what Cmax?
Output: 17000 ng/mL

* * *

test: Oral vemurafenib plasma pharmacokinetics in tumor‐free WT and Abcb1a/b;Abcg2−/− FVB nude mice; format: in vivo; details: FVB nude, mouse, plasma, po, 10 mg/kg, WT mice, 10 mg·kg^−1 p.o. + elacridar 100 mg·kg^−1 p.o. 4 h before, mean ± SD; read-out: t 1/2 (elimination half‐life) (converted)
Property: half-life
Report the figure along with its unit, number first.

Input: State the recorded half-life for this entry: CCCS(=O)(=O)Nc1ccc(F)c(C(=O)c2c[nH]c3ncc(-c4ccc(Cl)cc4)cc23)c1F
Output: 5.8 h
